# Tested on: intracellular proteome of ENR+CD and ENR organoids
# procedure.summary: LC-MS/MS TMT proteomics of ENR+CD versus ENR organoids
# Format: cell-based, C57BL/6 mice
# measurement.context: protein abundance ratio ENR+CD versus ENR organoids, sample pair M1-2; LC-MS/MS TMT proteomics
# Description: Because PCs are highly secretory, protein-rich cells, Applicants sought to assess the total intracellular proteome between conditions through liquid chromatography mass spectrometry (LC-MS/MS)-based proteomics. Applicants quantified relative protein abundance across eight samples using isobaric mass tag labeling from four ENR and four ENR+CD samples (M1-1 through M2-2, first digit denotes biological donor, second digit denotes technical replicate) (FIG. 3A). […]
measured.endpoint: M1-2 Log2 Median Normalized
Give only the figure.

Query string: Which M1-2 Log2 Median Normalized value is on record for Q9DD24 (protein, UniProt Q9DD24 1-104, looked up, full-length) MKPCQKMEGNLEKEDEPKPEEEPKPEEKPEEGQEPEEEEKSEETFRERLIRSLQDFQEDIHNRHLSSDDLFRDVEELDEIRKVRNKLIVTRWKANRSHPYPYLM ?
Result string: 0.97

Query string: // query M1-2 Log2 Median Normalized value for entry Q9CVI2 (protein, UniProt Q9CVI2 1-245, looked up, full-length) MGKRDNRVAYMNPIAMARSRGPIQSSGPTIQDYLNRPRPTWEEVKEQLEKKKKGSKALAEFEEKMNENWKKELEKHREKLLSGNESSSKKRQKKKKEKKKSGRYSSSSSSSSDSSSSSSDSEDEDKKQTKRRKKKKSRCHKSPESSGSDSASDSKDGSKKKKKSKDVTEREKDTKGLSKKRKMYEDKPLSSESLSESDCGEVQAKRKKSGEERERTTDKAKKRRKHKKHSKKKKKKAASSSSDSP
Result string: −1.072

Query string: Request the reported M1-2 Log2 Median Normalized associated with Q9R022 (protein, UniProt Q9R022 1-198, looked up, full-length) MDAILNYRPEGSEDYYALLGCDELSSVEQILAEFKIRALECHPDKHPENSKAVETFQKLQKAKEILCNAESRARYDHWRRSQMSMPFEQWEALADSVKTSMHWAVRSKKDLMLEGSGQTFTSSVPNKERSEQRETKKGDPDSNPEKMKQKEPKFPEEGISPQNPDSPGLSDLNCGHLRFRWSGDAPSELLRKFRNYEI
Result string: 1.212

Origin of values: patent US11994512B2
